meta.source: patent US20250313563A1

- Target desc: GSK3b (GST-full length GSK3b) (Homo sapiens (Human), UniProt P49841)
- Sequence (P49841 whole entry): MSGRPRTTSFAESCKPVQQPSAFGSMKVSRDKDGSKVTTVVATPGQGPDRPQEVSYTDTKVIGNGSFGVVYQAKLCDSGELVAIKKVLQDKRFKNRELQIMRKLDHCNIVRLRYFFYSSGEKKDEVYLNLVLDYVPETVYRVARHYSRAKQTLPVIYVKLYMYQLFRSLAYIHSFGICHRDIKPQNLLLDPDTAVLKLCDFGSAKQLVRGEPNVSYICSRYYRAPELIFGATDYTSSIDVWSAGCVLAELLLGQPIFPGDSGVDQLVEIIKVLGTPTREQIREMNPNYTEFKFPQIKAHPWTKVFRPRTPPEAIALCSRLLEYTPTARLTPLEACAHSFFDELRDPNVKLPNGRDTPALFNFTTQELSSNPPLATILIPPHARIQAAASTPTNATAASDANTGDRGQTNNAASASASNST
- Protocol text: GSK3b TR-FRET kinase assay
- Assay type: biochemical
- Condition description: read-out: GSK3-B (TR-FRET 1 mM ATP); GMean; IC50; 1 mM ATP; geometric mean
Measurement type: IC50

I have this compound here, CC[C@]1(c2cccc(S(=O)(=O)C3CC3)c2)C2=C(CC(C)(C)N(C)C2=O)Nc2n[nH]cc21 , and I need its recorded IC50. 1000 to 5000 nM

// same read-out, input: CC[C@@]1(c2cccc(-c3ccncc3C)c2)C2=C(CC(C)(C)NC2=O)Nc2n[nH]c(C)c21 1000 to 5000 nM

// same read-out, input: CC(C)(C)Cc1[nH]nc2c1[C@@](C)(c1cccc(S(=O)(=O)N3CCCC3)c1)C1=C(CC(C)(C)NC1=O)N2 > 5000 nM

// same read-out, input: CC[C@]1(c2cccc(Cc3ncccn3)c2)C2=C(CC(C)(C)CC2=O)Nc2n[nH]cc21 > 5000 nM

// same read-out, input: Cn1cncc1-c1cccc(C2(C)C3=C(CC(C)(C)CC3=O)Nc3n[nH]c(CC(C)(C)C)c32)c1 (stereo not shown) 100 to 1000 nM

// same read-out, input: CCC1(c2cccc(N3CCCc4ncccc43)c2)C2=C(CC(C)(C)CC2=O)Nc2n[nH]cc21 (stereo not shown) 100 to 1000 nM

// same read-out, input: C[S+]([O-])c1cccc(C2(C)C3=C(CC(C)(C)CC3=O)Nc3n[nH]c(CC(C)(C)C)c32)c1 (stereo not shown) [Compound 126190] 100 to 1000 nM

----------
- Target desc: GSK3α (GST-full length GSK3α) (Homo sapiens (Human), UniProt P49840)
- Sequence (P49840 whole entry): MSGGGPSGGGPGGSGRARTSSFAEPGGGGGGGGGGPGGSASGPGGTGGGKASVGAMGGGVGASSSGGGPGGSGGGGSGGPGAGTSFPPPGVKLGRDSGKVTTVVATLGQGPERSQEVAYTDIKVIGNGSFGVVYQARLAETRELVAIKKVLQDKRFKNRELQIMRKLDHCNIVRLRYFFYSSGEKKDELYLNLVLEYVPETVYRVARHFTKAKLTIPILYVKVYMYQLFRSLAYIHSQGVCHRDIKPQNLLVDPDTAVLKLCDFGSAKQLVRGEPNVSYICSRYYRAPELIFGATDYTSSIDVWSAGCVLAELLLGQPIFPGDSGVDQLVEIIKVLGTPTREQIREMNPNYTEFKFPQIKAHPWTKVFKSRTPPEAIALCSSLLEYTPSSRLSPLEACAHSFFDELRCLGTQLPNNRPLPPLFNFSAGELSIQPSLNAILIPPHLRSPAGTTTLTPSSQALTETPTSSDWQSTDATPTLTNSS
- Protocol text: GSK3α TR-FRET kinase assay
- Assay type: biochemical
- Condition description: read-out: GSK3-A (TR-FRET 1 mM ATP); GMean; IC50; 1 mM ATP; geometric mean
pIC50: −log10 of the molar value.
For each entry below, report its pIC50 value.

I have this molecule here, CN1CC2(C3=C(CC(C)(C)CC3=O)Nc3n[nH]c(CC(C)(C)C)c32)c2ccccc21 (stereo not shown) [Compound 125979] , and I need its recorded pIC50. < 5.30

// same read-out, input: CC[C@]1(c2cccc(-c3ccncc3OC)c2)C2=C(CC(C)(C)CC2=O)Nc2n[nH]cc21 [Compound 945471] < 5.30

// same read-out, input: CC[C@]1(c2cccc(S(=O)(=O)C(C)C)c2)C2=C(CC(C)(C)NC2=O)Nc2n[nH]c(C(F)(F)F)c21 [Compound 948419] ≥ 7.00

// same read-out, input: CCC1(c2cccc(-c3cncn3C)c2)C2=C(CC(C)(C)NC2=O)Nc2n[nH]c(C(F)(F)F)c21 (stereo not shown) [Compound 949010] ≥ 7.00

----------
- Target desc: GSK3b (GST-full length GSK3b) (Homo sapiens (Human))
- Protocol text: GSK3b TR-FRET kinase assay
- Assay type: biochemical
- Condition description: 1 nM GSK3b, 2 μM ATP, 30 minute preincubation, Table 16; read-out: GSK3-B TR-FRET BIOCHEMICAL (TR-FRET); IC50
pIC50: −log10 of the molar value.
Measurement type: pIC50

Give pIC50 (GSK3b (GST-full length GSK3b) (Homo sapiens (Human))) of the following compound: CC[C@]1(c2cccc(-c3cc(C(C)(C)C)nn3C)c2)C2=C(CC(C)(C)NC2=O)Nc2n[nH]cc21 < 5.30

// same read-out, input: CC(C)[C@@H]1C[C@@]2(CCO1)C1=C(CC(C)(C)CC1=O)Nc1n[nH]cc12 < 5.30

// same read-out, input: CC[C@@]1(c2cccc(OC)c2)C2=C(CC(C)(C)NC2=O)Nc2n[nH]c(C)c21 5.30 to 6.00

// same read-out, input: CC[C@@]1(c2cccc(-c3c(C)ccc4c(C)cccc34)c2)C2=C(CC(C)(C)NC2=O)Nc2n[nH]c(F)c21 < 5.30

// same read-out, input: CC[C@]1(c2cccc(-c3ccnn3-c3ccc(F)cc3)c2)C2=C(CC(C)(C)NC2=O)Nc2n[nH]cc21 6.00 to 7.00

// same read-out, input: CCC1(c2cccc(N(C)c3ncccn3)c2)C2=C(CC(C)(C)C2=O)Nc2n[nH]cc21 (stereo not shown) < 5.30

// same read-out, input: CCC1(c2cccc(C(C)C)c2)C2=C(CC(C)(C)NC2=O)Nc2n[nH]cc21 (stereo not shown) 6.00 to 7.00

----------
- Target desc: GSK3b (GST-full length GSK3b) (Homo sapiens (Human), UniProt P49841)
- Protocol text: GSK3b TR-FRET kinase assay
- Assay type: biochemical
- Condition description: 1 nM GSK3b, 2 μM ATP, 30 minute preincubation; read-out: GSK3-B TR-FRET BIOCHEMICAL (TR-FRET); IC50
For each entry below, report its IC50 value.

I have this molecule here, CCC1(c2cccc(S(C)(=O)=O)c2)C2=C(CC(C)(C)NC2=O)Nc2n[nH]c(C)c21 (stereo not shown) , and I need its recorded IC50. ≤ 100 nM

// same read-out, input: CC[C@@]1(c2cccc(-c3cnn(C)c3C)c2)C2=C(CC(C)(C)NC2=O)Nc2n[nH]cc21 > 5000 nM

// same read-out, input: CCC1(c2cccc(C(F)(F)F)c2)C2=C(CCNC2=O)Nc2n[nH]cc21 (stereo not shown) [Compound 870263] > 5000 nM

// same read-out, input: CC(=O)N1CC2(C1)C[C@@]1(CO2)C2=C(CC(C)(C)CC2=O)Nc2n[nH]cc21 100 to 1000 nM

----------
- Target desc: GSK3α (GST-full length GSK3α) (Homo sapiens (Human), UniProt P49840)
- Protocol text: GSK3α TR-FRET kinase assay
- Type: biochemical
- Condition description: 1 nM GSK3α, 4 μM ATP, 30 minute preincubation; read-out: GSK3-A TR-FRET BIOCHEMICAL (TR-FRET); IC50
- Method: TR-FRET Assay: The assay was performed in a white, 384 well, low volume, flat bottom plate (Grenier). After a 30 minute preincubation in assay buffer with the indicated concentration of compound, the kinase activity was initiated by the addition of the substrates. […] After 60 min at room temperature the plate was read on Envision plate reader using Ex: 340 nm, Em: 615 nm and […]. The normalized 665/615 Signal ratio versus log compound concentration was analyzed by XLFIT to yield IC50 values.
Measurement type: IC50

I have this compound here, CC[C@]1(c2cccc(C(F)(F)F)c2)C2=C(CCN(C(C)(C)C)C2=O)Nc2n[nH]cc21 [Compound 945634] , and I need its recorded IC50. 1000 to 5000 nM

// same read-out, input: Cc1ccc(C(=O)N2CC3(C2)CC2(CO3)C3=C(CC(C)(C)CC3=O)Nc3n[nH]cc32)cc1 (stereo not drawn) [Compound 947290] ≤ 100 nM

// same read-out, input: CC1(C)CC(=O)C2=C(C1)Nc1n[nH]cc1C21CCN(S(=O)(=O)c2cccc3c2OCCO3)CC1 [Compound 947464] ≤ 100 nM

// same read-out, input: CC[C@@]1(c2cccc(C(F)(F)F)c2)C2=C(CCN(C)C2=O)Nc2n[nH]cc21 [Compound 917282] ≤ 100 nM

// same read-out, input: CC1(C)CC(=O)C2=C(C1)Nc1n[nH]cc1[C@]21C[C@@]2(CCN(CC(F)F)C2)C1 [Compound 913139] 100 to 1000 nM

// same read-out, input: CC1(C)CC(=O)C2=C(C1)Nc1n[nH]cc1C21COC2(CN(C(=O)C3CCC3)C2)C1 (stereo not drawn) [Compound 947288] ≤ 100 nM

// same read-out, input: Cc1ccccc1CC(=O)N1CC2(C1)CC1(CO2)C2=C(CC(C)(C)CC2=O)Nc2n[nH]cc21 (stereo not drawn) [Compound 947295] ≤ 100 nM

// same read-out, input: CCC1(c2cccc(C(F)(F)F)c2)C2=C(CCNC2=O)Nc2n[nH]cc21 (stereo not drawn) [Compound 912622] 100 to 1000 nM

// same read-out, input: CC1(C)CC2=C(C(=O)N1)C1(CCN(S(C)(=O)=O)CC1)c1c[nH]nc1N2 [Compound 943959] ≤ 100 nM

// same read-out, input: CC1(C)CC(=O)C2=C(C1)Nc1n[nH]cc1C21COC2(CN(C(=O)c3ccccc3)C2)C1 (stereo not drawn) [Compound 917231] ≤ 100 nM

// same read-out, input: Cc1ccc(C)c(C(=O)N2CC3(C2)CC2(CO3)C3=C(CC(C)(C)CC3=O)Nc3n[nH]cc32)c1 (stereo not drawn) [Compound 947285] ≤ 100 nM

// same read-out, input: CC1CC(C(=O)N2CC3(C2)CC2(CO3)C3=C(CC(C)(C)CC3=O)Nc3n[nH]cc32)C1 (stereo not drawn) [Compound 947732] 100 to 1000 nM

// same read-out, input: CC1(C)CC(=O)C2=C(C1)Nc1n[nH]cc1C21COC2(CN(C(=O)C3CC(C)(C)C3)C2)C1 (stereo not drawn) [Compound 947282] ≤ 100 nM

// same read-out, input: CC(=O)N1CC[C@@]2(C1)C[C@]1(CO2)C2=C(CC(C)(C)CC2=O)Nc2n[nH]cc21 [Compound 948320] 100 to 1000 nM

// same read-out, input: CCC1(c2cccc(C(F)(F)F)c2)C2=C(CN(C)C2=O)Nc2n[nH]cc21 (stereo not drawn) [Compound 945367] 100 to 1000 nM
